# methodNotes: Substrate depletion in commercial Han Wistar rat intestinal microsomes, combined or individual CYP and UGT cofactors
# condition: male, Han Wistar, rat, pH 7.4, CL int,u, Commercial Han Wistar pool, UGT cofactors, 1 mg/ml, 1 μM compound, UGT cofactors only
attributeMeasured: microsomal CLint at 1 μM (µL/min/mg)
Respond numerically; units are µL/min/mg and should not be typed.

### Prompt Complete the entry with microsomal CLint at 1 μM for "CCCCc1nc(Cl)c(CO)n1Cc1ccc(-c2ccccc2-c2nn[nH]n2)cc1"
### Response 9

### Prompt Answer with the recorded microsomal CLint at 1 μM of "CCCCC1=NC2(CCCC2)C(=O)N1Cc1ccc(-c2ccccc2-c2nnn[nH]2)cc1" only.
### Response 9.4

### Prompt Output measured microsomal CLint at 1 μM for this item: O=c1ccc2ccc(O)cc2o1 [7‐Hydroxycoumarin]
### Response 327

### Prompt Give the reported microsomal CLint at 1 μM for this molecule. "CN(C)CCC=C1c2ccccc2CCc2ccccc21"
### Response 3

Source listed as paper PMC5413848.
